- Test system: Trypanosoma cruzi
- method_summary: Antiparasitic activity against Trypanosoma cruzi Tulahuen C2C4 amastigotes
- Type: functional, organism-based
Kindly supply the reported log10(EC50) values for the records listed here.
Base-10 log of EC50, unit nM.

Data request: Find the recorded log10(EC50) belonging to Clc1ccc(C(ON=C2CC3CCC(C2)N3)c2ccccc2)cc1 (configuration not stated) and report it.
Data returned: 3.30

Data request: Then what about the compound CN1C2CCC1CC(=NOC(c1ccc(Cl)cc1)c1cccnc1)C2 (configuration not stated) ?
Data returned: 2.70

Data request: Next: COc1ccc(C(ON=C2CC3CCC(C2)N3C)c2ccccc2)cc1 (configuration not stated)
Data returned: 2.48

Data request: Field entry: CN1C2CCC1CC(=NOC(CCc1ccccc1)c1ccc(Cl)cc1)C2 (configuration not stated)
Data returned: 3.81

Data request: Now the same for CN1C2CCC1CC(=NOC(CCc1ccc(Cl)cc1)c1ccccc1)C2 (configuration not stated)
Data returned: 2.90

Data request: Try the compound OCCN1C2CCC1CC(=NOC(c1ccccc1)c1ccc(Cl)cc1)C2 (configuration not stated)
Data returned: 3.89

Data request: Request: CN(C)CCN1C2CCC1CC(=NOC(c1ccccc1)c1ccc(Cl)cc1)C2 (configuration not stated)
Data returned: 3.84

Data request: Another compound to check: CN1C2CCC1CC(=NOC(c1ccccc1)c1ccc(I)cc1)C2 (configuration not stated)
Data returned: 1.60

Data request: Lookup CN1C2CCC1CC(=NOC(c1ccccc1)c1ccccc1Cl)C2 (configuration not stated)
Data returned: 3.83

Data request: How about Cc1ccc(C(ON=C2CC3CCC(C2)N3C)c2ccccc2)cc1 (configuration not stated) ?
Data returned: 2.48

* * *

Provide the reported pEC50 of each item.
- System: Trypanosoma cruzi
- method_summary: Antiparasitic activity against Trypanosoma cruzi Tulahuen C2C4 amastigotes
- Type: functional, organism-based
// pEC50 is dimensionless: -log10 of concentration (M)

Data request: Record request: pEC50 value, item CN1CCC(=NOC(c2ccccc2)c2ccc(Cl)cc2)CC1 (stereo unspecified)
Data returned: 5.43

Data request: Same thing, different molecule: CN1C2CCC1CC(=NOC(c1ccccc1)c1ccc(F)cc1)C2 (stereo unspecified)
Data returned: 6.10

Data request: Next molecule up: CN1C2CCC1CC(=NOC(c1ccncc1)c1ccc(Cl)cc1)C2 (stereo unspecified)
Data returned: 5.21

Data request: Also CN1C2CCC1CC(=NOC(Cc1ccccc1)c1ccc(Cl)cc1)C2 (stereo unspecified) ?
Data returned: 5.68

Data request: Same read-out for CN1C2CCC1CC(=NOC(c1ccccc1)c1ccc(C(F)(F)F)cc1)C2 (stereo unspecified) ?
Data returned: 7.52

Data request: What do you have for CN1C2CCC1CC(=NOC(c1ccccc1)c1ccc(Br)cc1)C2 (stereo unspecified) ?
Data returned: 7.40

Data request: Thanks! And CN1C2CCC1CC(=NOC(c1ccccc1)c1ccc(Cl)cc1)C2 (stereo unspecified) ?
Data returned: 6.96

Data request: Input COc1cccc(C(ON=C2CC3CCC(C2)N3C)c2ccccc2)c1 (stereo unspecified)
Data returned: 5.70

Data request: Also check `CN1C2CCC1CC(=NOC(c1ccc(Cl)cc1)c1ccc(Cl)cc1)C2`
Data returned: 5.22

* * *

- Tested on: Trypanosoma cruzi
- method_summary: Antiparasitic activity against Trypanosoma cruzi Tulahuen C2C4 amastigotes
- Type: functional, organism-based
value_type: EC50 (µM)
// return numeric value only (unit: µM, not printed)

Data request: Query (molecule): CN1C2CCC1CC(=NOC(Cc1ccc(Cl)cc1)c1ccccc1)C2 (stereo unspecified) ; field requested: EC50
Data returned: 1.9

Data request: Also need `CN1C2CCC1CC(=NOC(c1ccccc1)c1ccccc1)C2` , thanks.
Data returned: 1.3

Data request: Try CN1C2CCC1CC(=NOC(c1ccccc1)c1cccc(Cl)c1)C2 (stereo unspecified) next.
Data returned: 2.1

Data request: Cool, now CN1C2CCC1CC(=NOC(c1ccccc1)c1ccc(C#N)cc1)C2 (stereo unspecified)
Data returned: 0.4

Data request: Try this molecule next: CN1C2CCC1CC(=NOC(c1ccc(Cl)cc1)c1cncs1)C2 (stereo unspecified)
Data returned: 6

* * *

Can you tell me pEC50 for the items I'm about to list?
- Test system: Trypanosoma cruzi
- method_summary: Antiparasitic activity against Trypanosoma cruzi Tulahuen C2C4 amastigotes
- Type: functional, organism-based
pEC50 (log units): -log10 of the concentration in mol/L.

Data request: I'm curious: which pEC50 was measured for CN1C2CCC1CC(=NOC(c1ccc(Cl)cc1)c1nccs1)C2 (stereo unspecified) tested on Trypanosoma cruzi?
Data returned: 5.64

Data request: // query: CN1C2CCC1CC(=NOC(c1ccc(Cl)cc1)c1ccccn1)C2 (stereo unspecified)
Data returned: 5.54

Data request: And what about the molecule CN1C2CCC1CC(=NOC(CCCc1ccccc1)c1ccc(Cl)cc1)C2 (stereo unspecified) ?
Data returned: 5.37

Data request: And the next one, CN1C2CCC1CC(=NOC(c1ccc(Cl)cc1)c1cscn1)C2 (stereo unspecified) ?
Data returned: 6.10

Data request: Next record, please: `O=C(Cn1ccnc1[N+](=O)[O-])NCc1ccccc1`
Data returned: 5.74
